targetUnderTest: T1, human C5a (source not stated) (human, UniProt P01031 678-751)
T1 sequence: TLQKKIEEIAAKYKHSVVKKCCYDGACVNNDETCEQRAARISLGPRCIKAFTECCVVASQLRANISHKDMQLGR
assay: cell-based or functional assay
Catalogue of ROS IC50 readings, one per entry.
Form entry: value (nM) — number only.

Example binders with recorded ROS IC50:
Hello, please tell me recorded ROS IC50 for this one: Cab08 scFv (scFv, V domains shown) VH: EVQLVESGGGLIQPGGSLRVSCAASGFTFSDYYLQWVRQAPGKGPEWVGLIRTKRYGGTSEYAASVKGRYTISRDDSKAIAYLQMSSLKTEDTAVYYCVVRIFTGLHWGKGTPVTVSS VL: DIVMTQTPLSRPVTPGEPASISCRSSQSLLHTDGYTYLDWYLQKPGQSPQLLIYGGSNRASGVPDRFSGSGSGTDFTLKISKVEAEDVGVYYCMQHKALPLTFGGGTKLEIK
1.29

Using the record for Cab32 (reformatted as human IgG1) (antibody, V domains shown) VH: EMQLVESGGGLVQPGGSLRLSCAASGFTFSDYYMQWVRQAPGKGPEWVGLIRNKAVGGTTQYAASVKGRFTISRDDSKNSVYLQMNSLKTEDTAVYYCVSRAGPPGLSWGQGVLVTVSS VL: DIVMTQSPLSLPVTPGEPASISCRSSQSLLASDGYIYIDWYLQKPGQSPQLLIYGGSNRASGVPDRFSGSGSGTDFTLKISRVEAEDVGVYFCLQHRALPPTFGQGTKLEIK , state its measured ROS IC50.
1.76

Now for a further binder.
Kindly indicate its recorded ROS IC50. Item: Cab16 scFv (scFv, V domains shown) VH: EVHLVESGGGLVQPGGSLKVSCAASGFTFSDYYMQWVRQAPGKGPEWVGLIRNKAIGETTEYAASVKGRFTISRDDSKSIVYLQMSSLKPEDTAVYYCAGRLGPPGLSWGQGVLVTVSS VL: DAVMTQIPLSLPVTPGEPASISCRSSQSLLHTDGYTYLDWYLQKPGQSPQLLIYGGSNRASGVPDRFSGSGSGTDFTLKISKVEAEDVGVYYCMQHKALPLTFGGGTRLEIK
0.87
